# Tested on: Toxoplasma gondii RH 2F1 tachyzoites (intracellular in HFF)
# TEST DETAILS: parasite survival relative to DMSO control; higher = less antiparasitic activity, active = 20 or less
# ASSAY CONTEXT: 1 µM; 72 h
The categories you may choose from are 1.0 (active), 0.0 (inactive)

(Q) Could you kindly confirm the outcome this assay logged for C/C(=N\NC(=O)C1CC1c1ccccc1)c1ccc(NC(=O)c2ccco2)cc1 (centres undefined) ?
(A) 0.0

(Q) Could you kindly confirm the outcome this assay logged for `CC[C@H](NC(=O)[C@H](C)NC)C(=O)N1C[C@@H](O)C[C@H]1Cc1c(-c2[nH]c3cc(F)ccc3c2C[C@@H]2C[C@H](O)CN2C(=O)[C@H](CC)NC(=O)[C@H](C)NC)[nH]c2cc(F)ccc12` ?
(A) 1.0

(Q) Could you kindly confirm the outcome this assay logged for `CN(C/C=C/C#CC(C)(C)C)Cc1cccc2ccccc12` ?
(A) 0.0

(Q) Could you kindly confirm the outcome this assay logged for `CC1(C)Cc2c(C#N)c(SCCc3ccccc3)nc(N3CCOCC3)c2CO1` ?
(A) 0.0

(Q) Could you kindly confirm the outcome this assay logged for `CCCNc1ccc(S(=O)(=O)Nc2cc(C)on2)cc1` ?
(A) 0.0

(Q) Could you kindly confirm the outcome this assay logged for `Cc1cc(NS(=O)(=O)c2ccc(-c3ccc(F)cc3F)cc2)no1` ?
(A) 0.0

(Q) Could you kindly confirm the outcome this assay logged for `O=C(O)c1ccc(-n2nc(-c3ccccc3O)nc2-c2ccccc2O)cc1` ?
(A) 0.0

(Q) Could you kindly confirm the outcome this assay logged for CC(C)=CCC/C(C)=C/CNCCNC1C2CC3CC(C2)CC1C3 (centres undefined) ?
(A) 1.0

(Q) Could you kindly confirm the outcome this assay logged for `C=C(C)[C@@H]1CC[C@]2(C(=O)O)CC[C@]3(C)[C@H](CC[C@@H]4[C@@]5(C)CC[C@H](O)C(C)(C)[C@@H]5CC[C@]43C)[C@@H]12` ?
(A) 0.0

----------
# System: HFF
# TEST DETAILS: cell viability relative to DMSO control; higher = less cytotoxic
# ASSAY CONTEXT: 1 µM; 72 h
MEASURED QUANTITY: cell viability
Reply with the number and its unit after it.

(Q) // cell viability lookup, key: C[N+]1(C)CCCC(OC(=O)C(O)(c2ccccc2)c2ccccc2)C1 (stereo not drawn)
(A) 69.6%

(Q) // cell viability lookup, key: NC1(C(=O)O)CCP(=O)(O)CC1 (stereo not drawn)
(A) 63.1%

(Q) // cell viability lookup, key: `O=C(NC12CC3CC(CC(C3)C1)C2)c1cc2ccccc2[nH]1`
(A) 83.6%

(Q) // cell viability lookup, key: `COc1cc(C(C)(C)CCCC(C)C)cc(OC)c1OC`
(A) 61%

(Q) // cell viability lookup, key: `CCCCc1ccc(C(=O)O)nc1`
(A) 56.4%

(Q) // cell viability lookup, key: `CC(C)Oc1cccc(NC(=O)c2ccccc2C(F)(F)F)c1`
(A) 70.5%

(Q) // cell viability lookup, key: `C[C@H]1CC[C@]2(NC1)O[C@H]1C[C@H]3[C@@H]4CC[C@H]5C[C@@H](O)CC[C@]5(C)[C@H]4CC[C@]3(C)[C@H]1[C@@H]2C`
(A) 73.1%

(Q) // cell viability lookup, key: `CCN1CCN(Cc2nc3ccc([N+](=O)[O-])cc3c(=O)n2-c2ccccc2F)CC1`
(A) 62.2%

# credit: the supplement of paper PMC10941209
